Parameter IC50: see the listing below.
# TARGET_SYSTEM: ALK (Homo sapiens, UniProt Q9UM73)
# Construct: host or cells: baculovirus expression system
# Sequence (Q9UM73 19-1620): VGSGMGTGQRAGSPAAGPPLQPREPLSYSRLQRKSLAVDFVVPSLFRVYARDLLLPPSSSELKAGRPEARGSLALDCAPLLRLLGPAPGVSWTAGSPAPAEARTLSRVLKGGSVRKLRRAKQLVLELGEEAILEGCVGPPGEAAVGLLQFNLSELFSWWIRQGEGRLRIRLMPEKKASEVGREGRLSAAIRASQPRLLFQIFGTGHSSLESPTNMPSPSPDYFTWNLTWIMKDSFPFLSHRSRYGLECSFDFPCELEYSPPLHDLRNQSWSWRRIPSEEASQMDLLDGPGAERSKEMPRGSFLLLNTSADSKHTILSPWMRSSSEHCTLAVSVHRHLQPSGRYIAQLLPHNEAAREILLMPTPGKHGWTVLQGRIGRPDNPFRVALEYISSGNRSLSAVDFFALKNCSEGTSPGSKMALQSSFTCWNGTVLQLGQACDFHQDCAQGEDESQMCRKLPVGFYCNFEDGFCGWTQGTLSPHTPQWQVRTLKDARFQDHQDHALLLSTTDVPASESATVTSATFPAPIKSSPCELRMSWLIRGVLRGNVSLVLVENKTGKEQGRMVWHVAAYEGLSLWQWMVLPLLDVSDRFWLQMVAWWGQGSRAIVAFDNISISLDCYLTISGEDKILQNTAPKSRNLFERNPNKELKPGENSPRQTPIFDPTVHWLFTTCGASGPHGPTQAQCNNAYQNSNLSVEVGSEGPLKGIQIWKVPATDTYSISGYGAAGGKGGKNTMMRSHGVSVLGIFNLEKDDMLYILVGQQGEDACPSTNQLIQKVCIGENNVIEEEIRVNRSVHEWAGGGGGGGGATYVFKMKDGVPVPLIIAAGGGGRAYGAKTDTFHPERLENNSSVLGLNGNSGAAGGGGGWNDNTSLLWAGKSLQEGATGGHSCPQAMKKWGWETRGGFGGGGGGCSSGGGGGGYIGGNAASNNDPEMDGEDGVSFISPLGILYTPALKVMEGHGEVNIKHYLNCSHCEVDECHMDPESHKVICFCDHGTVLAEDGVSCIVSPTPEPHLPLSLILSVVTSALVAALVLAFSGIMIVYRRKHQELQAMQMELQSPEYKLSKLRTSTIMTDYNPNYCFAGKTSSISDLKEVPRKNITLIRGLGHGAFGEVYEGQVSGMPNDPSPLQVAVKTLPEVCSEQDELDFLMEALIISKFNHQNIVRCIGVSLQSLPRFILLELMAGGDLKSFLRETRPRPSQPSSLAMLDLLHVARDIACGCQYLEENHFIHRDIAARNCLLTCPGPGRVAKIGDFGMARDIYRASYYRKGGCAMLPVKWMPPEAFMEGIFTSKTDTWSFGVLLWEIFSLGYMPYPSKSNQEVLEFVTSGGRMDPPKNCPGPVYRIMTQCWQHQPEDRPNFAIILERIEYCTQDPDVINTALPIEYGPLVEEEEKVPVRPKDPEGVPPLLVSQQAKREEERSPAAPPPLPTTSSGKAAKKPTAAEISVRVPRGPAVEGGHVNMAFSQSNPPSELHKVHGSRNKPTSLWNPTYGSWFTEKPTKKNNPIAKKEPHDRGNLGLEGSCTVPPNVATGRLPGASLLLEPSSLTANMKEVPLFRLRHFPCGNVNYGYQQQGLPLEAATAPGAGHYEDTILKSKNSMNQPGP
# TEST_DESCRIPTION: ALK Kinase Assay (ELISA/TRF, PLC-γ substrate)
# Type: biochemical
# PROTOCOL_CONDITIONS: ALK kinase inhibition, 1 μM ATP; read-out: ALK Potency

MOL_SMILES | IC50
CN1CCN(c2ccc(Nc3ncc4ccc(-c5cccc(CNCCS(C)(=O)=O)c5)n4n3)cc2)CC1 | 100 to 1000 nM
Cc1cc(Nc2ncc3ccc(-c4cccc(S(=O)(=O)NC(C)(C)C)c4)n3n2)ccc1C1CCN(C)CC1 | < 100 nM
CN1CCN(c2ccc(Nc3ncc4ccc(NCc5cccnc5)n4n3)cc2)CC1 | 100 to 1000 nM
CN1CCC(c2ccc(Nc3ncc4ccc(-c5cnn(CCC#N)c5)n4n3)cc2)CC1 | 100 to 1000 nM
CN1CCC(c2ccc(Nc3ncc4ccc(-c5cccc(Cl)c5)n4n3)cc2)CC1 | < 100 nM
CN(c1ccccc1-c1ccc2cnc(Nc3ccc4nc(C(C)(C)C)[nH]c4c3)nn12)S(C)(=O)=O | 100 to 1000 nM
COc1cc(C2CCNCC2)ccc1Nc1ncc2ccc(-c3ccccc3N(C)S(C)(=O)=O)n2n1 | < 100 nM
COc1ccccc1-c1ccc2cnc(Nc3ccc4c(c3)N3CCC4CC3)nn12 | < 100 nM

* * *

Parameter pIC50: see the listing below.
# TARGET_SYSTEM: JAK2 (Homo sapiens, UniProt O60674)
# Construct: host or cells: baculovirus expression system
# Sequence (O60674 whole entry): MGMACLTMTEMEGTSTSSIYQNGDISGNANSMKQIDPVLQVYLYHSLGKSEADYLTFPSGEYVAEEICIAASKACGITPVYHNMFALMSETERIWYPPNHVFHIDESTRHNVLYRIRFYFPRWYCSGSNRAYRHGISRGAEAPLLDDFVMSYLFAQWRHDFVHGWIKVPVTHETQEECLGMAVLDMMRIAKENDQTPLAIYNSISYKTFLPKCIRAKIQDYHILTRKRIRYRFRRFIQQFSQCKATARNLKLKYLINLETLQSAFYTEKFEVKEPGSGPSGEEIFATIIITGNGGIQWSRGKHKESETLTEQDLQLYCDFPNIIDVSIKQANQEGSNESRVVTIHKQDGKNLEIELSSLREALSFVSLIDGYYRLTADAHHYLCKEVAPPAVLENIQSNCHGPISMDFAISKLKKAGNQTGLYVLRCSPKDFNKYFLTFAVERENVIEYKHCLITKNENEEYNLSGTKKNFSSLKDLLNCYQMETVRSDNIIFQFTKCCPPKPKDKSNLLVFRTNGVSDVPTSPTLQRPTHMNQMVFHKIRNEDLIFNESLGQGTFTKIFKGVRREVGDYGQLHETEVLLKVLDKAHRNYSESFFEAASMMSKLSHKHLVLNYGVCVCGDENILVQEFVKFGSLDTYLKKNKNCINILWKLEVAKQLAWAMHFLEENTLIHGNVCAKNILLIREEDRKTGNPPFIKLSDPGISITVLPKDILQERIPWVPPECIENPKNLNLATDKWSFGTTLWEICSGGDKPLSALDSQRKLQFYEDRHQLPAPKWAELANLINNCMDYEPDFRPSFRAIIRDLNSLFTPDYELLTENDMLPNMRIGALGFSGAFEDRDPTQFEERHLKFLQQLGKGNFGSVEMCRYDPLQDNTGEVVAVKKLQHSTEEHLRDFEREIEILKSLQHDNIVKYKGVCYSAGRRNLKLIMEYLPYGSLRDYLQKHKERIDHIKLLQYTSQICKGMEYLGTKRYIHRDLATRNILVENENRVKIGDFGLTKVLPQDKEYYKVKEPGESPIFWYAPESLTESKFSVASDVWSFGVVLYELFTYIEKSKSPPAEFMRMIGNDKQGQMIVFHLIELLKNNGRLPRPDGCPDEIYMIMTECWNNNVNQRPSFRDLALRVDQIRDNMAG
# TEST_DESCRIPTION: Recombinant Human JAK2 Kinase Assay (TRF)
# Type: biochemical
# PROTOCOL_CONDITIONS: JAK2 kinase inhibition, 0.2 μM ATP; read-out: JAK2 Potency
pIC50: −log10 of the molar value.

MOLECULE | TARGET_SYSTEM | pIC50
COc1cc(CN2CCOCC2)ccc1Nc1ncc2ccc(-c3ccccc3N(C)S(C)(=O)=O)n2n1 [Example 1221] | JAK2 (Homo sapiens, UniProt O60674) | 5.00 to 6.00
COc1ccc(C(=O)N2CCN(C)CC2)cc1Nc1ncc2ccc(-c3ccccc3OC)n2n1 [Example 494] | JAK2 (Homo sapiens, UniProt O60674) | < 5.00
COc1cc(C2(C#N)CCC(N3CCOCC3)CC2)ccc1Nc1ncc2ccc(-c3ccccc3OC)n2n1 (stereo not shown) [Example 1246] | JAK2 (Homo sapiens, UniProt O60674) | 6.00 to 7.00
CC(C)(C)NS(=O)(=O)c1cccc(-c2ccc3cnc(Nc4ccc5scnc5c4)nn23)c1 [Example 575] | JAK2 (Homo sapiens, UniProt O60674) | > 7.00
CN1CCN(c2ccc(Nc3ncc4ccc(-c5cccc(S(=O)(=O)NC(C)(C)C)c5)n4n3)cn2)CC1 [Example 1127] | JAK2 (Homo sapiens, UniProt O60674) | > 7.00
COc1cc(C2CCN(CC(N)=O)CC2)ccc1Nc1ncc2ccc(-c3ccccc3OC)n2n1 [Example 814] | JAK2 (Homo sapiens, UniProt O60674) | 6.00 to 7.00
COc1cc([C@@]2(O)CCNC[C@@H]2O)ccc1Nc1ncc2ccc(-c3ccccc3N(C)S(C)(=O)=O)n2n1 (racemic) [Example 840] | JAK2 (Homo sapiens, UniProt O60674) | 5.00 to 6.00
CN1CCC(c2ccc(Nc3ncc4ccc(-c5cccc(S(=O)(=O)N6CCCC6)c5)n4n3)cc2)CC1 [Example 903] | JAK2 (Homo sapiens, UniProt O60674) | > 7.00
NC(=O)CN1CC(c2ccc(Nc3ncc4ccc(-c5cccc6c5OCC6)n4n3)cc2)C1 [Example 587] | JAK2 (Homo sapiens, UniProt O60674) | > 7.00
COc1ccc(CN2CCN(C)CC2)cc1Nc1ncc2ccc(-c3ccccc3OC)n2n1 [Example 495] | JAK2 (Homo sapiens, UniProt O60674) | > 7.00
CN1CCc2ccc(Nc3ncc4c(-c5ccc(F)cc5)ccn4n3)cc2C1 [Example 728] | JAK2 (Homo sapiens, UniProt O60674) | 5.00 to 6.00
COc1cc(N2CCC(N3CCOCC3)CC2)ccc1Nc1ncc2ccc(-c3cccc4cccnc34)n2n1 [Example 512] | JAK2 (Homo sapiens, UniProt O60674) | 5.00 to 6.00
COc1cc2c(cc1Nc1ncc3ccc(-c4ccccc4N(C)S(C)(=O)=O)n3n1)CN(C(C)C)C2 [Example 876] | JAK2 (Homo sapiens, UniProt O60674) | 6.00 to 7.00
COc1ccccc1-c1ccc2cnc(Nc3cccc(C(=O)N4CCN(CCO)CC4)c3OC)nn12 [Example 1233] | JAK2 (Homo sapiens, UniProt O60674) | 5.00 to 6.00
COc1cc(N2CCC(N3CCCOCC3)CC2)ccc1Nc1ncc2ccc(-c3ccccc3N(C)S(C)(=O)=O)n2n1 [Example 783] | JAK2 (Homo sapiens, UniProt O60674) | 6.00 to 7.00
COc1ccccc1-c1ccc2cnc(Nc3ccc4c(c3)CCC(N3CCOCC3)CC4)nn12 (stereo not shown) [Example 614] | JAK2 (Homo sapiens, UniProt O60674) | > 7.00

* * *

# TARGET_SYSTEM: ALK (Homo sapiens, UniProt Q9UM73)
# Construct: host or cells: baculovirus expression system
# TEST_DESCRIPTION: ALK Kinase Assay (ELISA/TRF, PLC-γ substrate)
# Type: biochemical
# PROTOCOL_CONDITIONS: ALK Kinase Inhibition; read-out: ALK Potency
pIC50: −log10 of the molar value.
Parameter pIC50: see the listing below.

COMPOUND | pIC50
COc1cccc(Nc2ncc3cc4ccccc4n3n2)c1 | < 5.00
CN1CCN(c2cccc(Nc3ncc4ccc(-c5cccc(COC(C)(C)C)c5)n4n3)c2)CC1 | 6.00 to 7.00
COc1cc(N2CCN(C)CC2)ccc1Nc1ncc2ccc(-c3ccccc3N(C)S(C)(=O)=O)n2n1 | > 7.00
COc1cc(N2CCCC(N3CCNCC3)C2)ccc1Nc1ncc2ccc(-c3ccccc3OC)n2n1 (stereo not shown) | > 7.00
CS(=O)(=O)c1ccc(-c2ccc3cnc(Nc4ccc(N5CCOCC5)nc4)nn23)cc1 | 5.00 to 6.00
CS(=O)(=O)c1ccc(-c2ccc3cnc(Nc4cccc(N5CCOCC5)c4)nn23)cc1F | 5.00 to 6.00
COc1cc(N2CCC(N3CCOCC3)CC2)ccc1Nc1ncc2ccc(-c3ccccc3C(F)(F)F)n2n1 | > 7.00
c1cncc(-c2ccc3cnc(Nc4cc[nH]n4)nn23)c1 | 5.00 to 6.00
COc1ccc(-c2ccc3cnc(Nc4ccc(N5CCC[C@@H](C(=O)N6CCN(C)CC6)C5)cc4OC)nn23)cn1 | 6.00 to 7.00
COc1ccccc1-c1ccc2cnc(Nc3ccc4ncccc4c3)nn12 | 5.00 to 6.00
CN1CCN(CC2CCN(c3ccc(Nc4ncc5ccc(-c6ccc(S(C)(=O)=O)cc6)n5n4)cc3)CC2)CC1 | 6.00 to 7.00
COc1ccc(Cl)cc1-c1ccc2cnc(Nc3ccc4[nH]ccc4c3)nn12 | 6.00 to 7.00
COc1ccc(Cl)cc1-c1ccc2cnc(Nc3ccc(N4CCCC(N5CCOCC5)C4)cc3)nn12 (stereo not shown) | > 7.00
COc1cc(C2CCN(CC(N)=O)CC2)ccc1Nc1ncc2c(Cl)cc(-c3ccccc3N(C)S(C)(=O)=O)n2n1 | > 7.00
CC(C)C(=O)Nc1cccc(Nc2ncc3ccc(-c4cccc(S(=O)(=O)NC(C)(C)C)c4)n3n2)c1 | 5.00 to 6.00
CC(C)(C)NS(=O)(=O)c1cccc(-c2ccc3cnc(Nc4cccc(C(N)=O)c4)nn23)c1 | 5.00 to 6.00
CC(=O)Nc1ccccc1-c1ccc2cnc(Nc3ccc(N4CCC(N5CCOCC5)CC4)cc3)nn12 | 6.00 to 7.00
C[C@H](O)CN1CCN(c2ccc(Nc3ncc4ccc(-c5cccc(S(=O)(=O)NC(C)(C)C)c5)n4n3)cc2)CC1 | > 7.00
COCc1ccc(-c2ccc3cnc(Nc4ccc(N5CCN(C)CC5)cc4)nn23)cc1 | 6.00 to 7.00
C[C@H](O)CN1CCN(c2cc(F)c(Nc3ncc4ccc(-c5ccccc5N(C)S(C)(=O)=O)n4n3)cc2F)CC1 | 6.00 to 7.00
COc1cc(N2CCC(CN3CCN(C)CC3)CC2)ccc1Nc1ncc2ccc(-c3ccccc3OC)n2n1 | > 7.00
COc1cccc(Nc2ncc3ccc(-c4cc(Cl)ccc4OC)n3n2)c1 | 5.00 to 6.00
C=Cc1cc(-c2ccc(S(C)(=O)=O)cc2)n2nc(Nc3ccc(N4CCN(C)CC4)cc3)ncc12 | 5.00 to 6.00
COc1ccc(Cl)cc1-c1ccc2cnc(Nc3ccc(N4CCN(C)CC4)cc3)nn12 | > 7.00
COc1ccccc1-c1ccc2cnc(Nc3ccc4nc(CN5CCN(C)CC5)[nH]c4c3)nn12 | 6.00 to 7.00
COc1ccccc1-c1cc(C#N)c2cnc(Nc3ccc(N4CCN(C)CC4)cc3)nn12 | 6.00 to 7.00
COc1ccccc1-c1ccc2cnc(Nc3ccc(OCCN4CCOCC4)cc3)nn12 | > 7.00
COc1ccccc1-c1ccc2cnc(Nc3ccc(N4CCC(C(=O)N5CCN(C)CC5)CC4)cc3)nn12 | > 7.00
COc1ccc(-c2ccc3cnc(Nc4ccc(N5CCN(C)CC5)cc4)nn23)cc1 | 6.00 to 7.00
COc1cc(N2CCC[C@H](CN3CCN(C)CC3)C2)ccc1Nc1ncc2ccc(-c3ccccc3N(C)S(C)(=O)=O)n2n1 | > 7.00
O=S(=O)(c1ccccc1)c1ccc2cnc(Nc3ccc(N4CCOCC4)cc3)nn12 | 6.00 to 7.00

Where do the numbers come from? From patent US8471005B2.
